# target under test: Arabidopsis thaliana SHMT
# procedure summary: SHMT activity assay (ED50 SHMT), coupled with N5,N10-CH2-THF dehydrogenase, NADH at 340 nm
# Format: biochemical
# condition description: Table 2, Arabidopsis thaliana SHMT enzyme assay; values given as upper bounds
pEC50: −log10 of the molar value.
Overview of recorded pEC50 for various compounds

Check out these entries, answers already filled in.
| compound | pEC50 |
| --- | --- |
| COc1n[nH]c2c1C(c1cc(C#N)cc(C(F)(F)F)c1)(C1CCC1)C(C#N)=C(N)O2 (stereo not shown) | > 8.00 |
| CSc1cccc(C2(C3CCC3)C(C#N)=C(N)Oc3[nH]nc(C)c32)c1 (stereo not shown) | > 8.00 |
| Cc1n[nH]c2c1C(c1ccc(F)c(Cl)c1)(C1CCCC1)C(C#N)=C(N)O2 (stereo not shown) | > 7.00 |
| Cc1n[nH]c2c1C(c1cc(C#N)cc(-c3cccc(F)c3)c1)(C1CCC1)C(C#N)=C(N)O2 (stereo not shown) | > 8.00 |
| Cc1n[nH]c2c1C(c1cc(C#N)cc(-c3cc(Cl)sc3Cl)c1)(C1CCC1)C(C#N)=C(N)O2 (stereo not shown) | > 8.00 |
| Cc1n[nH]c2c1C(c1cccc(OC(F)(F)F)c1)(C1CCC1)C(C#N)=C(N)O2 (stereo not shown) | > 8.00 |

What the record says about COc1ccc(C2(C3CCCC3)C(C#N)=C(N)Oc3[nH]ncc32)cc1Cl (stereo not shown) : pEC50 is > 5.00

What the record says about N#CC1=C(N)Oc2[nH]ncc2C1(c1cc(Cl)cc(-c2nccs2)c1)C1CCC1 (stereo not shown) : pEC50 is > 8.00

What the record says about Cc1n[nH]c2c1C(c1cc(Br)cc(Br)c1)(C1CCC1)C(C#N)=C(N)O2 (stereo not shown) : pEC50 is > 8.00

What the record says about CCOc1n[nH]c2c1C(c1cc(Br)cc(C#N)c1)(C1CCC1)C(C#N)=C(N)O2 (stereo not shown) : pEC50 is > 8.00

What the record says about Cc1n[nH]c2c1C(c1ccc(C(F)(F)F)c(C(F)(F)F)c1)(C1CCC1)C(C#N)=C(N)O2 (stereo not shown) : pEC50 is > 8.00

What the record says about Cc1n[nH]c2c1C(c1cc(Cl)cc(-c3cccc(Cl)c3)c1)(C1CCC1)C(C#N)=C(N)O2 (stereo not shown) : pEC50 is > 8.00

What the record says about Cc1n[nH]c2c1C(c1cc(C#N)cc(C(F)(F)F)c1)(C1CC1)C(C#N)=C(N)O2 (stereo not shown) : pEC50 is > 8.00

What the record says about Cc1cccc(Oc2cc(Cl)cc(C3(C4CCC4)C(C#N)=C(N)Oc4[nH]nc(C)c43)c2)c1 (stereo not shown) : pEC50 is > 7.00

What the record says about N#CC1=C(N)Oc2[nH]ncc2C1(c1cc(C#N)cc(-c2cscn2)c1)C1CCC1 (stereo not shown) : pEC50 is > 7.00

What the record says about N#CC1=C(N)Oc2[nH]ncc2C1(c1cc(Cl)cc(Br)c1)C1CCC1 (stereo not shown) : pEC50 is > 8.00

What the record says about Cc1n[nH]c2c1C(c1cc(Cl)cc(Oc3ccccc3F)c1)(C1CCC1)C(C#N)=C(N)O2 (stereo not shown) : pEC50 is > 8.00

What the record says about N#CC1=C(N)Oc2[nH]ncc2C1(c1cc(Cl)cc(C#N)c1)C1CC1 (stereo not shown) : pEC50 is > 7.00

What the record says about Cc1n[nH]c2c1C(c1cc(Cl)cc(Cl)c1)(C1CC=CC1)C(C#N)=C(N)O2 (stereo not shown) : pEC50 is > 8.00

What the record says about N#CC1=C(N)Oc2[nH]ncc2C1(c1cccc(SC(F)(F)F)c1)C1CCC1 (stereo not shown) : pEC50 is > 7.00

What the record says about Cc1n[nH]c2c1C(c1cc(C#N)cc(-c3ccsc3Cl)c1)(C1CCC1)C(C#N)=C(N)O2 (stereo not shown) : pEC50 is > 8.00

What the record says about Cc1n[nH]c2c1C(c1cccc(S(C)(=O)=O)c1)(C1CCC1)C(C#N)=C(N)O2 (stereo not shown) : pEC50 is > 6.00

What the record says about Cc1n[nH]c2c1C(c1cc(Br)cc(C#N)c1)(C1CC=CC1)C(C#N)=C(N)O2 (stereo not shown) : pEC50 is > 8.00

What the record says about Cc1n[nH]c2c1C(c1cc(Cl)cc(-c3ccc(O)cc3)c1)(C1CCC1)C(C#N)=C(N)O2 (stereo not shown) : pEC50 is > 8.00

What the record says about Cc1n[nH]c2c1C(c1cc(Cl)c(Cl)c(C(F)(F)F)c1)(C1CCC1)C(C#N)=C(N)O2 (stereo not shown) : pEC50 is > 8.00

What the record says about N#CC1=C(N)Oc2[nH]ncc2C1(c1cc(Br)cc(Br)c1)C1CCC1 (stereo not shown) : pEC50 is > 8.00

What the record says about COc1n[nH]c2c1C(c1cc(Br)cc(C#N)c1)(C1(F)CC1)C(C#N)=C(N)O2 (stereo not shown) : pEC50 is > 7.00

What the record says about N#CC1=C(N)Oc2[nH]ncc2C1(c1cc(Cl)cc(Cl)c1)C1CCC1 (stereo not shown) : pEC50 is > 8.00

What the record says about Cc1n[nH]c2c1C(c1cc(Cl)cc(C(=O)O)c1)(C1CCC1)C(C#N)=C(N)O2 (stereo not shown) : pEC50 is > 7.00

What the record says about Cc1n[nH]c2c1C(c1cccc(C(F)(F)F)c1)(C1CCCCC1)C(C#N)=C(N)O2 (stereo not shown) : pEC50 is > 5.00

What the record says about Cc1n[nH]c2c1C(c1cc(Cl)cc(-c3ccc(C(F)(F)F)cc3)c1)(C1CCC1)C(C#N)=C(N)O2 (stereo not shown) : pEC50 is > 8.00

* * *

# target under test: Arabidopsis thaliana SHMT
# procedure summary: SHMT activity assay (ED50 SHMT), coupled with N5,N10-CH2-THF dehydrogenase, NADH at 340 nm
# Format: biochemical
# condition description: inhibition of initial velocity of Arabidopsis thaliana SHMT
# Method: Determination of the ED50 SHMT was carried out as described hereinunder. Purification of Arabidopsis thaliana SHMT The following buffers were used during the purification protocol: […] The rate of N5,N10-CH2-THF formation catalyzed by SHMT was monitored at 340 nm by coupling with excess N5,N10-CH2-THF dehydrogenase, which converts NAD+to NADH. […] Inhibition of initial velocity was determined by adding various inhibitors of the SHMT reaction and monitored as described. […]
pEC50: −log10 of the molar value.
readout type: pEC50

Check out these entries, answers already filled in.
| compound | value reported |
| --- | --- |
| Cc1n[nH]c2c1C(c1ccc(-c3cccc(F)c3)s1)(C1CCC1)C(C#N)=C(N)O2 (stereo not shown) [Compound 4.14] | > 8.00 |
| Cc1n[nH]c2c1C(c1cc(C(F)(F)F)c3nc(C(=O)O)ccc3c1)(C1CCC1)C(C#N)=C(N)O2 (stereo not shown) [Compound 4.39] | > 8.00 |
| Cc1n[nH]c2c1C(c1cc(Cl)c3c(c1)OCCO3)(C1CCC1)C(C#N)=C(N)O2 (stereo not shown) [Compound 4.5] | > 8.00 |
| Cc1n[nH]c2c1C(c1ccc(-c3ccc(Cl)cc3)s1)(C1CCC1)C(C#N)=C(N)O2 (stereo not shown) [Compound 4.20] | > 8.00 |
| COc1c(F)cc(-c2ccc(C3(C4CCC4)C(C#N)=C(N)Oc4[nH]nc(C)c43)s2)cc1F (stereo not shown) [Compound 4.50] | > 7.00 |
| Cc1n[nH]c2c1C(c1cc3cc(Cl)ccc3s1)(C1CCC1)C(C#N)=C(N)O2 (stereo not shown) [Compound 4.9] | > 8.00 |
| N#CC1=C(N)Oc2[nH]nc(C(F)F)c2C1(c1ccc(Cl)s1)C1CC1 (stereo not shown) [Compound 4.83] | > 5.00 |
| Cc1n[nH]c2c1C(c1cc3ccc(Cl)cc3s1)(C1CCC1)C(C#N)=C(N)O2 (stereo not shown) [Compound 4.63] | > 6.00 |

What the record says about Cc1n[nH]c2c1C(c1ccc(Cl)s1)(C1CC1)C(C#N)=C(N)O2 (stereo not shown) [Compound 4.74] : pEC50 is > 6.00

What the record says about Cc1n[nH]c2c1C(c1cncc(Cl)c1)(C1CCC1)C(C#N)=C(N)O2 (stereo not shown) [Compound 4.11] : pEC50 is > 8.00

What the record says about COC(=O)c1ccc(C2(C3CCC3)C(C#N)=C(N)Oc3[nH]nc(C)c32)s1 (stereo not shown) [Compound 4.27] : pEC50 is > 8.00

What the record says about COc1ccc2cc(C3(C4CCC4)C(C#N)=C(N)Oc4[nH]nc(CO)c43)ccc2c1 (stereo not shown) [Compound 4.77] : pEC50 is > 6.00

What the record says about Cc1n[nH]c2c1C(c1ccc(-c3ccccc3F)s1)(C1CCC1)C(C#N)=C(N)O2 (stereo not shown) [Compound 4.17] : pEC50 is > 8.00

What the record says about COc1ccc2cc(C3(C4CCC4)C(C#N)=C(N)Oc4[nH]nc(C)c43)ccc2c1 (stereo not shown) [Compound 4.36] : pEC50 is > 8.00

What the record says about Cc1n[nH]c2c1C(c1ccc3c(c1)OC(F)(F)O3)(C1CCC1)C(C#N)=C(N)O2 (stereo not shown) [Compound 4.25] : pEC50 is > 8.00

What the record says about Cc1n[nH]c2c1C(c1ccc(-c3cccc(C(F)(F)F)c3)s1)(C1CC1)C(C#N)=C(N)O2 (stereo not shown) [Compound 4.53] : pEC50 is > 7.00

Value source: patent US9480259B2
